# METHOD_SUMMARY: physchem
# RUN_PARAMETERS: octanol/water, pH 6.5
Checkbox rule: logD lower than 0.1 = True; logD not lower than 0.1 = False.

COMPOUND	ANSWER_LABEL
Cc1ccc(C(=O)c2ccc(CC(=O)O)n2C)cc1 [TOLMETIN]	True

Lookup: Record CCC(C)(C)NCC(O)COc1ccccc1C(=O)CCc1ccccc1 (stereo unspecified) [DIPRAFENONE] : is its logD strictly below 0.1?
Found: False

Lookup: Do the same for CSc1ccc(C(=O)c2[nH]c(=O)[nH]c2C)cc1 [ENOXIMONE] please
Found: False

Lookup: Quick one: O=C(NCCNCC(O)COc1ccc(O)cc1)N1CCOCC1 (stereo unspecified) [XAMOTEROL]
Found: True

Lookup: What do you get for NC(=O)CCCCc1ccccc1 ?
Found: False

Lookup: Moving on to the next compound: O=C(NC1CCN(CCc2c[nH]c3ccccc23)CC1)c1ccccc1 [INDORAMIN]
Found: False
